All figures here come from patent EP4775582A1.

# system under test: KRAS G12V-cRAF (Homo sapiens, UniProt P01116+P62937, G12V)
# Sequence (P01116 1-188 isoform P01116-2 G12V): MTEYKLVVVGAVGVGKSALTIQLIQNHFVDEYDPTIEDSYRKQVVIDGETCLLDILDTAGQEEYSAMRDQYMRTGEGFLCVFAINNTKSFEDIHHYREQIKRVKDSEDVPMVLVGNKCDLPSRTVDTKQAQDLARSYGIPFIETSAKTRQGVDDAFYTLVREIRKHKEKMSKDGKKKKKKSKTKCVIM
# Sequence (P62937 whole entry): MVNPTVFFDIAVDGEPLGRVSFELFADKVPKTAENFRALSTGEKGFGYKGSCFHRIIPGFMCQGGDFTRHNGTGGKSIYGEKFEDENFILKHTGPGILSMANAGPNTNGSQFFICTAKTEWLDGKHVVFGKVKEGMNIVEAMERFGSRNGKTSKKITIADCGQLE
# assay procedure: Assay for binding of KRAS to cRAF (HTRF, with Cyclophilin A), KRAS G12V
# condition info: read-out: KRAS G12V-cRAF binding assay, GPPNP-KRAS G12V, IC50 values
quantity kind: pIC50
// returns pIC50 (minus log10 of molar concentration), number only

- molecule: "CCn1c(-c2cc(C#CCN3CCC(C#N)(CN)CC3)c[n+]([O-])c2[C@H](C)OC)c2c3cc(ccc31)-c1csc(n1)C[C@H](NC(=O)[C@H]1[C@@H]3COC[C@@H]31)C(=O)N1CCC[C@H](N1)C(=O)OCC(C)(C)C2 (atropisomer, axis not shown; (Ra)) [Compound Z64-1]"
  system under test: "KRAS G12V-cRAF (Homo sapiens, UniProt P01116+P62937, G12V)"
  pIC50: 8.39
- molecule: "COCCn1c(-c2cc(C#CCN3CCN(C(=O)CO)CC3)c[n+]([O-])c2[C@H](C)OC)c2c3cc(ccc31)-c1csc(n1)C[C@H](NC(=O)[C@H]1[C@H](C)[C@@H]1C)C(=O)N1CCC[C@H](N1)C(=O)OCC(C)(C)C2 (atropisomer, axis not shown; (Ra)) [Compound Z54]"
  system under test: "KRAS G12V-cRAF (Homo sapiens, UniProt P01116+P62937, G12V)"
  pIC50: 7.92
- molecule: "CCn1c(-c2cc(C#CCN3CCN(C(=O)CO)CC3)cnc2[C@H](C)OC)c2c3cc(ccc31)-c1csc(n1)C[C@H](NC(=O)[C@H]1[C@@H]3COC[C@@H]31)C(=O)N1CCC[C@H](N1)C(=O)OCC(C)(C)C2 (atropisomer, axis not shown; (Ra)) [Compound Z34]"
  system under test: "KRAS G12V-cRAF (Homo sapiens, UniProt P01116+P62937, G12V)"
  pIC50: 7.77
- molecule: "CCn1c(-c2cc(C#CCN3CCC(C#N)(CN)CC3)cnc2[C@H](C)OC)c2c3cc(ccc31)-c1csc(n1)C[C@H](NC(=O)[C@H]1[C@@H]3COC[C@@H]31)C(=O)N1CCC[C@H](N1)C(=O)OCC(C)(C)C2 (atropisomer, axis not shown; (Ra)) [Compound Z52]"
  system under test: "KRAS G12V-cRAF (Homo sapiens, UniProt P01116+P62937, G12V)"
  pIC50: 7.88
- molecule: "CCn1c(-c2cc(C#CCN3CCC(C#N)(CN)CC3)c[n+]([O-])c2[C@H](C)OC)c2c3cc(ccc31)-c1csc(n1)C[C@H](NC(=O)[C@H]1[C@H](C)[C@@H]1C)C(=O)N1CCC[C@H](N1)C(=O)OCC(C)(C)C2 (atropisomer, axis not shown; (Ra)) [Compound Z57]"
  system under test: "KRAS G12V-cRAF (Homo sapiens, UniProt P01116+P62937, G12V)"
  pIC50: 8.20
- molecule: "CCn1c(-c2cc(C#CCN3CCC(C#N)(CO)CC3)cnc2[C@H](C)OC)c2c3cc(ccc31)-c1csc(n1)C[C@H](NC(=O)[C@H]1[C@@H]3COC[C@@H]31)C(=O)N1CCC[C@H](N1)C(=O)OCC(C)(C)C2 (atropisomer, axis not shown) [Compound Z39]"
  system under test: "KRAS G12V-cRAF (Homo sapiens, UniProt P01116+P62937, G12V)"
  pIC50: 8.04

Requested read-out: pIC50. Entry: CCn1c(-c2cc(C#CCN3CCC(C#N)(CN)CC3)cnc2[C@H](C)OC)c2c3cc(ccc31)-c1csc(n1)C[C@H](NC(=O)[C@H]1[C@H](C)[C@@H]1C)C(=O)N1CCC[C@H](N1)C(=O)OCC(C)(C)C2 (atropisomer, axis not shown; (Ra)) [Compound Z181] 7.88

Requested read-out: pIC50. Entry: CCn1c(-c2cc(C#CCN3CCN(C(=O)CN)CC3)cnc2[C@H](C)OC)c2c3cc(ccc31)-c1coc(n1)C[C@H](NC(=O)[C@H]1[C@@H]3COC[C@@H]31)C(=O)N1CCC[C@H](N1)C(=O)OCC(C)(C)C2 (atropisomer, axis not shown; (Ra)) [Compound Z167] 7.86
